Cited source for all entries: patent US6462055B2

Assignment: determine reported IC50 for the given compounds.
# Test system: HSV-1
# ASSAY_NAME: HSV Antiviral (ELISA) Assay in Vero cells
# Assay type: cell-based, herpes simplex virus type 1
# EXPERIMENTAL_CONDITIONS: Human alphaherpesvirus 1; HSV-1, Vero cells; read-out: IC50 (ug/ml) HSV

Worked set:
CC(NC(=S)Nc1ccc(NC(=O)c2ccc(O)cc2)cc1)c1ccc(F)cc1 (stereo not drawn) [Example 760] = > 10 µg/mL
COc1cc(OC)c(NC(=S)Nc2ccc(NC(=O)c3ccccc3Br)cc2)cc1Cl [Example 142] = 0.4 µg/mL
CC(NC(=S)Nc1ccc(NC(=O)c2ccccc2F)cc1)c1cccc(C(F)(F)F)c1 (stereo not drawn) [Example 786] = > 10 µg/mL
C[C@H](NC(=S)Nc1ccc(NC(=O)c2ccccc2F)cc1)c1ccc(Br)cc1 [Example 1004] = > 10 µg/mL
CC(NC(=S)Nc1ccc(NC(=O)c2cccc(F)c2)cc1)c1ccc(F)cc1 (stereo not drawn) [Example 800] = > 10 µg/mL
COc1ccc(NC(=S)Nc2ccc(NC(=O)c3ccccc3F)cc2)cc1F [Example 995] = > 10 µg/mL

Please give IC50, item by item, for the list that follows.
1. O=C(Nc1ccc(NC(=S)Nc2ccc(Cl)c(Cl)c2)cc1)c1ccccc1F [Example 912]
2. COc1c(Cl)cc(NC(=S)Nc2ccc(NC(=O)c3cccc(F)c3)cc2)cc1Cl [Example 872]
3. O=C(Nc1ccc(NC(=S)NCc2cc(C(F)(F)F)ccc2F)cc1)c1ccccc1F [Example 669]
4. Cc1ccc(NC(=S)Nc2ccc(NC(=O)c3ccccc3F)cc2)cc1C(F)(F)F [Example 1003]
5. CC(NC(=S)Nc1ccc(NC(=O)c2cnc3ccccc3c2)cc1)c1ccc(F)cc1 (stereo not drawn) [Example 988]
6. CN(c1ccc(NC(=S)Nc2ccc(NC(=O)c3ccccc3F)cc2)cc1Cl)C1CCN(Cc2ccccc2)C1 (stereo not drawn) [Example 857]
7. CC(NC(=S)Nc1ccc(NC(=O)c2cc3ccccc3o2)cc1)c1ccc(F)cc1 (stereo not drawn) [Example 980]

["8 µg/mL", "4 µg/mL", "> 10 µg/mL", "> 10 µg/mL", "> 10 µg/mL", "2 µg/mL", "> 10 µg/mL"]

List IC50 for every entry below, keeping the order given.
1. C[C@@H](NC(=S)Nc1ccc(NC(=O)c2ccccc2F)cc1)c1ccc(Br)cc1 [Example 1005]
2. COc1ccccc1C(=O)Nc1ccc(NC(=S)NC(C)c2ccc(C#N)cc2)cc1 (stereo not drawn) [Example 1017]

2.9 µg/mL
> 10 µg/mL

* * *

# Test system: HCMV recombinant mutant virus (RV145)
# ASSAY_NAME: microbe, parasite or virus in culture
# Type: cell-based, human cytomegalovirus
# EXPERIMENTAL_CONDITIONS: HCMV
VALUE_TYPE: IC50 ug/ml HCMV

For orientation, consider the following solved cases.
O=C(Nc1ccc(NC(=S)NCCCc2ccccc2)cc1)c1ccccc1F [Example 628] = >10 µg/mL
O=C(Nc1ccc(NC(=S)Nc2cc(N3CCCC3)cc(C(F)(F)F)c2)cc1)c1ccccc1F [Example 566] = >0.5 µg/mL
CCOC(=O)COc1cccc(C(=O)Nc2ccc(NC(=S)Nc3cc(Cl)c(OC)cc3OC)cc2)c1 [Example 221] = >10 µg/mL

Let's switch to this compound now.
Fill in the blank: the reported IC50 ug/ml HCMV of CC(NC(=S)Nc1ccc(NC(=O)c2ccccc2Cl)cc1)c1ccc(F)cc1 (stereo not shown) [Example 755] is ____.
>10 µg/mL
